Parameter: z-score. Scope: all listed entries.
Assay: CREB reporter modulators without forskolin, primary screen, cell-based, PC12, CRE-LacZ reporter, unstimulated (AID 1145)
Details: no forskolin, luminescence, 4.5 h, higher = more signal, called active from +8 up or from −8 down
# respond with the number and nothing more

In the examples that follow, each entry is paired with its recorded z-score.
>>> measured_value("CC(C)(C)OC(=O)CC[C@]1(C(=O)O)N=C(c2ccc(OCCCO)cc2)O[C@H]1c1ccccc1CN=[N+]=[N-]")
-1.09
>>> measured_value("COc1ccc([Si](C)(C)[C@H]2[C@H](CC(=O)N3Cc4ccccc4C[C@H]3CO)O[C@@]3(C(=O)N(Cc4cccc(N5CCCCC5=O)c4)c4ccccc43)[C@@H]2C)cc1")
2.21
>>> measured_value("[N-]=[N+]=Nc1ccccc1[C@H]1OC(c2ccc(OCCCO)cc2)=N[C@@]1(CCS(=O)(=O)c1ccccc1)C(=O)N1CCCCC1")
0.47
>>> measured_value("CCOC(=O)C[C@H]1[C@H](OC(=O)c2ccccc2-c2ccccc2)[C@@H](NC(=O)CC(C)C)c2cc(OCCCO)ccc2N1C(=O)c1ccc2ccccc2n1")
8.37
>>> measured_value("NCCCCCCNC(=O)[C@H]1C[C@H]2C(=O)N[C@@H](Cc3ccccc3)C(=O)N2[C@H]1c1ccc(O)cc1")
-1.48

INPUT: Recorded z-score of `C=CCN1C(=O)[C@@]2(O[C@@H](CCO)[C@H]([Si](C)(C)c3ccc(OC)cc3)[C@H]2C)c2cc(N3C(=O)c4ccccc4Oc4ccccc43)ccc21` , please.
OUTPUT: 18.4

INPUT: Recorded z-score of `CC(C)(C)OC(=O)CC[C@]1(C(=O)NCCN2CCOCC2)N=C(c2ccc(OCCCO)cc2)O[C@H]1c1ccccc1N=[N+]=[N-]` , please.
OUTPUT: 0.872

* * *

Molecular target: Torsin-1A (Homo sapiens)
Assay: small-molecule binders of mutant TOR1A in lysate, primary screen, cell lysate, small-molecule microarray, COS7 lysate, 635/667 nm fluorescence (AID 1150);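 further: score pools 667 nm emission and signal to noise measuring lysate protein binding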
Conditions: COS7 hTOR1A mutant lysate, 635 nm fluorescence, higher = more signal
Parameter: composite z-score. Scope: all listed entries.
# respond with the number and nothing more

In the examples that follow, each entry is paired with its recorded composite z-score.
>>> measured_value("[N-]=[N+]=NCc1ccccc1[C@H]1OC(c2ccc(OCCCO)cc2)=N[C@@]1(CCS(=O)(=O)c1ccccc1)C(N)=O")
1.76
>>> measured_value("C[C@]1(C(=O)O)c2ccccc2C(=O)N(Cc2ccccc2)[C@H]1c1ccc(CO)cc1")
-0.224
>>> measured_value("O=C1O[C@H](c2ccccc2)[C@H](c2ccccc2)N2[C@H]1[C@@H](C(=O)O)[C@]1(C(=O)Nc3ccccc31)[C@H]2c1ccc(O)cc1")
1.45
>>> measured_value("CC(C)CCC[C@@H](C)[C@H]1CC[C@@]2(C)C3=C(CC[C@]12C)[C@@]1(C)CC[C@H](OC(=O)c2ccc(Br)cc2)C(C)(C)C1CC3 (stereo partly drawn)")
0.409
>>> measured_value("Cc1ccc(S[C@]2(C(=O)NCC(F)(F)F)CC(=O)N(Cc3ccccc3)[C@@H]2c2ccc(CO)cc2)cc1")
-0.238

INPUT: Recorded composite z-score of `O=C(O)[C@H]1C[C@H]2C(=O)N3CCC[C@H]3C(=O)N2[C@H]1c1cccc(OCCO)c1` , please.
OUTPUT: 1.57

INPUT: Recorded composite z-score of `Cc1ccc(S[C@]2(C(=O)NCC(C)C)CC(=O)N(Cc3ccccc3Cl)[C@@H]2c2ccc(CO)cc2I)cc1` , please.
OUTPUT: -0.682

INPUT: Recorded composite z-score of `C[n+]1ccc(CCCO)cc1` , please.
OUTPUT: -0.0965

* * *

Parameter: composite z-score. Scope: all listed entries.
Biological target: Streptavidin (Streptomyces avidinii) (UniProt P22629)
Sequence (P22629 whole entry, looked up): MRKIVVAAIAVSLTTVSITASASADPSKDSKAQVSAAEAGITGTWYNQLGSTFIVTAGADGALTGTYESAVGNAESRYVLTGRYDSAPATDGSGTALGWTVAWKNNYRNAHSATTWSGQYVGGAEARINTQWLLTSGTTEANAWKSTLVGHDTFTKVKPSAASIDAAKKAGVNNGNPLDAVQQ
Assay: streptavidin binders on small-molecule microarray, primary screen, artefact control for SMM compound annotation, biophysical, 635/667 nm fluorescence (AID 1147);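 further: signal reflects streptavidin binding to arrayed compounds as a control protein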
Conditions: streptavidin binding, higher = more signal

In the examples that follow, each entry is paired with its recorded composite z-score.
>>> measured_value("CC(C)OC(=O)CC(=O)CC(O)c1cccc(C#N)c1 (configuration not stated)")
1.35
>>> measured_value("CCOc1cc(C(O)C2C=CC3C(=O)N(C)C(=O)C3N2N2CCCCC2)ccc1O (configuration not stated)")
0.3
>>> measured_value("C=CCOC(=O)[C@@H]1[C@H]2C(=O)O[C@H](c3ccccc3)[C@H](c3ccccc3)N2[C@H](c2ccc(OCCOC(=O)[C@H]3C[C@H]4C(=O)N[C@@H](CCCC[N+](C)(C)C)C(=O)N4[C@H]3c3ccc(O)cc3)cc2)[C@@]12C(=O)Nc1ccc(I)cc12")
0.0658
>>> measured_value("COC(=O)[C@@]1(Cc2ccc(OC)cc2)[C@H]2c3cc(C(=O)N(C)C)n(Cc4nc5ccccc5[nH]4)c3C[C@H]2CN1C(=O)c1ccccc1")
1.12
>>> measured_value("COC(=O)[C@@]1(Cc2ccc(OC)cc2)[C@H]2c3cc(C(=O)N4CCCC4)n(CCc4cc5ccccc5[nH]4)c3C[C@H]2CN1C(=O)c1ccccc1")
1.58

INPUT: Recorded composite z-score of C=CCC(OC(C)=O)[C@@H]1[C@@H](N(Cc2cc3ccccc3o2)C(=O)c2ccc(C)cc2)c2cc(OCCCO)ccc2N1C(=O)Cc1ccc2ccccc2c1 (some centres not stated) , please.
OUTPUT: -0.172

INPUT: Recorded composite z-score of `CCC[C@@H]1C[C@@]1(CCC)[C@@H](NP(=O)(c1ccccc1)c1ccccc1)c1ccc(Cl)cc1` , please.
OUTPUT: -0.749

* * *

Assay: modulators of S6 phosphorylation in cells, primary screen, cell-based, A549, cytoblot, luminescence, serum-stimulated (AID 1158);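 further: serum-stimulated A549 lung adenocarcinoma cells; signal is phosphorylated S6 detected by cytoblot immunostaining with HRP secondary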
Conditions: A549 phospho-S6 cytoblot, 5 h, higher = more signal
Rule: 1 (yes) for z-score not less than 0.1, 0 (no) for anything less.

Check out these entries, answers already filled in.
>>> assigned_label("COC(=O)[C@@]1(Cc2ccc(OC)cc2)[C@H]2c3cc(C(=O)N4CCCC4)n(CCc4cc5ccccc5[nH]4)c3C[C@H]2CN1C(=O)c1ccccc1")
"0 (no)"
>>> assigned_label("CC1CC/C=C\\[C@H]2OC34C=CCN(CCN5CCOCC5)C(=O)[C@H]3N(CCO)C(=O)[C@@H]4C2C(=O)O1 (stereo not given in full)")
"0 (no)"
>>> assigned_label("C=CCC(OC(C)=O)[C@@H]1[C@@H](N(Cc2cc3ccccc3o2)C(=O)c2ccc(C)cc2)c2cc(OCCCO)ccc2N1C(=O)Cc1ccc2ccccc2c1 (stereo not given in full)")
"1 (yes)"
>>> assigned_label("COCCCNC(=O)[C@@]1(Sc2ccc(C)cc2)CC(=O)N(Cc2cc(C(F)(F)F)cc(C(F)(F)F)c2)[C@@H]1c1ccc(CO)cc1")
"0 (no)"
>>> assigned_label("O=C1c2ccccc2[C@@]2(Cc3ccccc3N(C3CC3)C2=O)[C@H](c2ccc(CO)cc2)N1C1CCCCC1")
"0 (no)"

INPUT: Does the reported z-score for `C[C@]1(C(=O)NC2CC2)c2ccccc2C(=O)N(Cc2ccc(OC(F)(F)F)cc2)[C@H]1c1ccc(CO)cc1` fall at or above the 0.1 mark?
OUTPUT: 0 (no)

INPUT: Does the reported z-score for `CC(C)C[C@@H]1NC(=O)[C@H]2C[C@@H](C(=O)NCCCCCC[N+](C)(C)C)[C@@H](c3cccc(OCCO)c3)N2C1=O` fall at or above the 0.1 mark?
OUTPUT: 0 (no)

INPUT: Does the reported z-score for `Cc1ccc(S[C@]2(C(=O)NC(C)C)CC(=O)N(Cc3ccccc3C(F)(F)F)[C@@H]2c2ccc(CO)cc2I)cc1` fall at or above the 0.1 mark?
OUTPUT: 1 (yes)

* * *

Parameter: composite z-score. Scope: all listed entries.
Target: Pro-neuregulin-1, membrane-bound isoform (Homo sapiens)
Assay: NRG1 binders on small-molecule microarrays, primary screen, psychiatric disease protein project, biochemical, small-molecule microarray, fluorescence 635/667 (AID 1075);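 further: score combines 667 nm spot fluorescence with signal to noise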
Settings: NRG1 binding, 635 nm fluorescence, higher = more signal

In the examples that follow, each entry is paired with its recorded composite z-score.
>>> measured_value("COc1ccc(NN2C(C(O)c3ccccn3)C=CC3C(=O)N(C4CCCCC4)C(=O)C32)cc1 (stereo not drawn)")
1.36
>>> measured_value("O=C1O[C@@H](c2ccccc2)[C@@H](c2ccccc2)N2[C@@H](c3ccc(O)cc3)[C@]3(C(=O)Nc4ccc(C#CCCO)cc43)[C@@H](C(=O)NC[C@H](O)c3ccccc3)[C@H]12")
0.381

Shift focus to the following entry.
INPUT: Recorded composite z-score of `CCOC(=O)C[C@H]1[C@H](OC(=O)c2ccccc2-c2ccccc2)[C@@H](NC(=O)CC(C)C)c2cc(OCCCO)ccc2N1C(=O)c1ccc2ccccc2n1` , please.
OUTPUT: -0.121
